- Test system: OVCAR-3
- measurement description: NCI tumour cell line growth inhibition, 48 h
Active and inactive are the calls of the source. Rule as the data show it: active = GI50 up to about 1.1 µM and inactive = higher.
endpoint name: GI50

Reference set (5 entries):
> print(dat)
                                   compound  tested.system  endpoint.name       value.measured
1  C=C(CN(CC(=C)C(=O)c1ccccc1)C(C)(C)C)C(=O)c1ccccc1        OVCAR-3           GI50   13.8 µM (inactive)
2        O=C(O)CCc1nc(-c2ccccc2-n2cccc2)no1        OVCAR-3           GI50     29 µM (inactive)
3  CCCCC1(NN=C2CCCCC2)C(=O)N(c2ccccc2)N(c2ccccc2)C1=O        OVCAR-3           GI50  > 100 µM (inactive)
4  COc1ccc(/C(Cl)=C(\C=O)c2ccc(Cl)c(Cl)c2)cc1OC        OVCAR-3           GI50   13.1 µM (inactive)
5              CCOC(=O)CCSS(=O)(=O)c1ccccc1        OVCAR-3           GI50  > 100 µM (inactive)

Let us examine a further case.
Name the recorded GI50 of the item C1CCC(OC2CSC2)OC1 (configuration not stated) in your answer. > 100 µM (inactive)
